Where these numbers come from: PubChem BioAssay (NCI)

- Tested on: M14 melanoma
- Protocol Details: NCI tumour cell line growth inhibition, 48 h
Measured Property: GI50

Example entries begin here.
Molecule: CCCCCCNc1nc(NCCCCCC)c2[nH]c(NCCCCCC)nc2n1
GI50: 14.1 µM

Molecule: O=C(N/N=C/c1ccc(Cl)cc1Cl)c1ccccc1Nc1cccc(C(F)(F)F)c1
GI50: 5.51 µM

Molecule: COC(=O)C(Cc1ccccc1)N/C=C\C(=O)c1ccc(Cl)cc1 (configuration not stated)
GI50: 19.1 µM

Molecule: Cc1ccc(C(=O)CC(Sc2cccc(Cl)c2Cl)c2ccc(Cl)cc2)cc1C (configuration not stated)
GI50: 26.7 µM

Molecule: COc1cc(-c2cn(C)c(=O)c(C)c2C)cc(OC)c1CN1CC[C@H](N2CCN(c3ccc(N[C@H]4CCC(=O)NC4=O)cc3F)CC2)C(F)(F)C1
GI50: 12.2 µM

Molecule: CS(=O)(=O)Nc1ccc(-c2ccc3c(NC(=O)C4CC4)n[nH]c3c2)cc1
GI50: 24.9 µM

Input: Entry under review: `CCCNCc1cc(C)cc2c1nc(N1CCNCC1)n2Cc1cc(C)c(F)c(C)c1` . Reported GI50?
Output: 1.86 µM

Input: Sample `C=CC(=O)N1CCN(c2ncnc3c(F)c(-c4c(O)cccc4F)c(Cl)cc23)CC1` — what was its GI50?
Output: 12.6 µM

Input: Which GI50 reading was recorded for the molecule `Nc1nc(Nc2ccc(OCc3cccc(F)c3)cc2)c2c(n1)[nH]c1ccc(O)cc12` ?
Output: 2.12 µM

Input: Query (molecule): `C=C1C(=O)O[C@H]2[C@H]1CC/C(COC(=O)c1cc3cc(OC)ccc3[nH]1)=C\CC[C@@]1(C)O[C@@H]21` ; field requested: GI50
Output: 1.27 µM

Input: Sample `COc1cc2c3c(n(CCCN4CCC(N)CC4)c(=O)c2cc1OC)-c1cc2c(cc1C3=O)OCO2` — what was its GI50?
Output: 1.34 µM

Input: For the molecule `COc1ccc(NC2=C(Br)C(=O)C(C)=C(C)C2=O)cc1` , what GI50 is on record?
Output: 11.7 µM

Input: Could you tell me which GI50 is on file for `CN(C)CCNC(=O)Nc1c(C#N)[n+]([O-])c2cc(Cl)c(Cl)cc2[n+]1[O-]` ?
Output: 21.9 µM

Input: Give its GI50 value. Item: `Cc1c(C(=O)NN)nnn1-c1ccnc2c(C(F)(F)F)cccc12`
Output: > 100 µM

Input: Recorded GI50 for `CCN(Cc1c(F)cccc1F)c1ccc(CO)c(Cl)c1` , please?
Output: 19.4 µM

Input: I have this molecule here, `CCCCCC(=O)Oc1ccc(/C(=C(\C)c2ccc(OC)cc2)c2ccc(OCCN3CCCCC3)cc2)cc1` , and I need its recorded GI50.
Output: 2.02 µM

Input: Name the recorded GI50 for `CCCSc1cc(Cl)nc(N)n1` .
Output: > 100 µM

###

- System: OVCAR-4 ovarian
- Protocol Details: NCI tumour cell line growth inhibition, 48 h
Measured Property: TGI

Some compounds with known TGI results, for comparison:
Compound: O=c1c(Cc2ccccc2)c(-c2ccccc2)[nH]n1C1=NCCN1
TGI: > 100 µM
//
Compound: CC(=O)n1c(-c2ccc(Cl)cc2)nc2c(c1=O)C(c1ccc(Cl)cc1)c1sc3c(Cl)cccc3c1O2 (configuration not stated)
TGI: 4.25 µM
//
Compound: O=c1cc(-c2ccccc2F)[nH]c2cc3c(cc12)OCO3
TGI: > 100 µM

Input: Recorded TGI for `CCOC(=O)/C(=C/c1ccco1)P(=O)(OCC)OCC` , please?
Output: > 100 µM

Input: Which value of TGI has been reported for Cc1ccc(C(=O)CC(Sc2cccc(Cl)c2Cl)c2ccc(Cl)cc2)cc1C (configuration not stated) in the records?
Output: > 100 µM

Input: Any idea what TGI was measured for CCC1C(=O)OCc2c1cc1n(c2=O)CCC12OCCO2 (configuration not stated) ?
Output: > 100 µM

Input: Need TGI, item `O=c1oc2ccccc2c2nc3ccccc3cc12`
Output: 47.7 µM

Input: Form field: reported TGI of COc1ccc(C(=O)C(C(=O)CCC(=O)Nc2cccc(C(F)(F)F)c2)c2ccccc2)cc1 (configuration not stated)
Output: > 100 µM

Input: Need TGI of `COc1ccc(/C=N/Nc2nc3ccccc3c(=O)n2-c2ccccc2)c(OCc2ccccc2)c1` , thanks.
Output: > 100 µM

Input: Field request: TGI | item: `O=[N+]([O-])c1ccc2nc3c(nc2c1)-c1c2ccccc2cc2cccc-3c12`
Output: > 100 µM

Input: # query: TGI of entry `CCOC(=O)c1[nH]c2nc(SC)nc(NC)c2c1N`
Output: > 100 µM

Input: Given the entry `CCCNCc1cc(C)cc2c1nc(N1CCNCC1)n2Cc1cc(C)c(F)c(C)c1` , report its measured TGI.
Output: 21.8 µM

###

Reported TGI values for the following molecules.
- Tested on: KM20L2 colon
- Protocol Details: NCI tumour cell line growth inhibition, 48 h

Recorded results for 2 molecules are shown here.
Smiles String: CC(C)(C)c1nc2c(o1)C(=Nc1ccc(F)cc1)c1ccccc1C2=O
TGI: 32.5 µM
//
Smiles String: O=C1CCn2c([nH]c3cccc4cccc2c43)=N1
TGI: > 100 µM

Now take the following molecule into account.
Input: Please look up its TGI: `CC1(C)CCc2cc3c(cc2O1)OCCC3=O`
Output: > 100 µM

###

- System: OVCAR-8 ovarian
- Protocol Details: NCI tumour cell line growth inhibition, 48 h
Measured Property: TGI (µM)
I only need the number, in µM, no unit after it.

Below: 2 molecules and their reported TGI.
Molecule: C=C(C)[C@@H]1CC[C@@]2(C(=O)O)CC[C@]3(C)C(CCC4[C@@]5(C)CCC(OS(=O)(=O)c6ccccc6)C(C)(C)C5CC[C@]43C)C12 (stereo not given in full)
Experimental Target: OVCAR-8 ovarian
TGI / µM: 88.7
//
Molecule: C/C(=N\Nc1nc2ccccc2s1)c1cccnn1
Experimental Target: OVCAR-8 ovarian
TGI / µM: 12.2

Input: Looking for the measured TGI of `C=CC(=O)N1CCN(c2ncnc3c(F)c(-c4c(O)cccc4F)c(Cl)cc23)CC1` , can you help?
Output: 67

Input: Item under review: `COc1cc2c3c(n(CCCN4CCC(N)CC4)c(=O)c2cc1OC)-c1cc2c(cc1C3=O)OCO2` . Reported TGI?
Output: 1.51

###

- Test system: CAKI-1 renal
- Protocol Details: NCI tumour cell line growth inhibition, 48 h
Measured Property: TGI

Reference set (5 entries):
Molecule: CC(O)(C(=O)N(O)c1ccc(Cl)cc1)c1ccc(Cl)cc1 (stereo not drawn)
TGI: 83.6 µM

Molecule: Cc1ccsc1C(=S)Nc1ccc(Cl)c(C(=O)OC(C(C)C)C(C)C)c1
TGI: 59.8 µM

Molecule: CC(=O)n1c(-c2ccc(Cl)cc2)nc2c(c1=O)C(c1ccc(Cl)cc1)c1sc3c(Cl)cccc3c1O2 (stereo not drawn)
TGI: 3.03 µM

Molecule: COc1cc(/C=C/C(=O)O)ccc1OS(=O)(=O)O
TGI: > 100 µM

Molecule: CCCSc1cc(Cl)nc(N)n1
TGI: > 100 µM

Now, please, on to the next molecule.
Input: What does the data say about its TGI? Entry: `CCOC(=O)Cc1nn2c(=O)cc(C)nc2s1`
Output: > 100 µM

###

Each entry below lists one item and its recorded TGI value.
- Tested on: EKVX NSCLC
- Protocol Details: NCI tumour cell line growth inhibition, 48 h

These recorded examples may help you get a feel for the data.
Molecule: O=C(CN=C(CN(c1ccccc1)c1ccccc1)Oc1c(Cl)cc(Cl)cc1Cl)n1cnc2ccccc21
Experimental Target: EKVX NSCLC
Result: > 100 µM
--
Molecule: CCOC(=O)Cc1nc(/C(C#N)=C/c2ccco2)[nH]c(=O)c1C#N
Experimental Target: EKVX NSCLC
Result: > 100 µM
--
Molecule: CC(C)(C)c1ccc2c(c1)OCc1n[nH]c(n1)COc1cc(C(C)(C)C)ccc1OCCOCCO2
Experimental Target: EKVX NSCLC
Result: 17.7 µM
--
Molecule: OCC1OC(O[C@H]2CN3[C@H](O)[C@@H](O)[C@H](O)[C@H]3C2O)C(O)C(O)C1O (some centres undefined)
Experimental Target: EKVX NSCLC
Result: > 100 µM
--
Molecule: COc1ccc(C2C(N)=NCC2c2ccccn2)cc1 (centres undefined)
Experimental Target: EKVX NSCLC
Result: > 100 µM

Let us examine a further case.
Input: Fill in the blank: the reported TGI of NC1=NC(=O)C(CC(=O)Nc2ccc([N+](=O)[O-])cc2[N+](=O)[O-])S1 (centres undefined) is ____.
Output: > 100 µM

###

- System: SK-MEL-28 melanoma
- Protocol Details: NCI tumour cell line growth inhibition, 48 h
Measured Property: TGI

These solved cases illustrate the format of a correct answer.
Compound: COc1ccccc1C(=O)c1ccc2ccccc2c1
Result: > 100 µM
//
Compound: CC1(C)[C@@H]2C[C@H]1c1cnc(-c3ccccn3)cc1[C@H]2C(O)[C@@H]1c2cc(-c3ccccn3)ncc2[C@H]2C[C@@H]1C2(C)C (stereo not given in full)
Result: 29.7 µM
//
Compound: O=C(NCCCNCCCCNCCCNC(=O)C(F)(F)F)C(F)(F)F
Result: > 100 µM

Input: Please give the measured TGI for this compound: `C=CCOc1c(Br)cc(Br)cc1Br`
Output: > 100 µM

Input: Name the recorded TGI for `CC(C)(C)c1nc2c(o1)C(=Nc1ccc(F)cc1)c1ccccc1C2=O` .
Output: 26 µM

Input: Given the compound Cn1c(N)nc2c(nc(OCc3ccccc3)n2C2OC(CO)C(O)C2O)c1=O (stereo not given) , what is its reported TGI?
Output: > 100 µM

Input: # TGI lookup, item `O=C1c2ccccc2-c2c1c1ccccc1c(=O)n2CCNCCCNCCn1c2c(c3ccccc3c1=O)C(=O)c1ccccc1-2`
Output: > 50 µM

Input: Entry under review: CC1(C)OC(CCO)CN1C(=O)OCc1ccccc1 (stereo not given) . Reported TGI?
Output: > 100 µM

Input: Any idea what TGI was measured for `Cc1cc2c(cc1Cl)SC(NNc1cnc3ccccc3n1)=NS2(=O)=O` ?
Output: > 100 µM

Input: Please look up its TGI: `CC(C)(C)c1ccc2c(c1)OCc1n[nH]c(n1)COc1cc(C(C)(C)C)ccc1OCCOCCO2`
Output: 9.52 µM
